- Species on record: Homo sapiens
- experiment_summary: Selectivity index, ratio of IC50 for human JAK2 to IC50 for human JAK1
observable: Ratio IC50

CN(c1ncnc2[nH]ccc12)[C@H]1CN(C(=O)Nc2ccc(F)cc2)CC12CC2 : 43

A = CN(c1ncnc2[nH]ccc12)[C@H]1CN(C(=O)c2ccncc2)CC12CC2
B = CN(c1ncnc2[nH]ccc12)[C@H]1CN(S(=O)(=O)N2CCCCC2)CC12CC2
C = CC(C)S(=O)(=O)N1C[C@H](N(C)c2ncnc3[nH]ccc23)C2(CC2)C1
Q. Reorder: Ratio IC50, max to min. In your reply, arrange the labels in the requested order.
A. A, B, C
(A: 46, B: 10, C: 6.5)
